Origin of measurements: patent US20030017483A1

Molecular target: luciferase mRNA containing the TAR RNA structure in the 5′-UTR
Experiment: wheat germ lysate translation of luciferase mRNA containing TAR RNA structure
Format: biochemical, HIV
Settings: luciferase mRNA with TAR RNA structure in the 5′-UTR, read-out: concentration reducing translation by 50%
Excerpt: It is believed that stabilization of mRNA structures near the 5′-cap also could be effected by specific “small” molecules, and that such binding would reduce the translational efficiency of the mRNA. To test this hypothesis, a plasmid was constructed containing the luciferase message behind a 5′-UTR containing a 27-mer RNA construct of the HIV TAR stem-loop bulge whose structure had been determined by NMR. […]
recorded-metric: pIC50
pIC50 here is simply -log10 of the concentration when that concentration is written in mol/L.

Sure, the documented pIC50 for `CNc1ccc(NCCO)c2c1C(=O)c1ccccc1C2=O` is 4.30
